Data provenance is PubChem BioAssay (NCI).

# System: MCF7 breast
# METHOD: NCI tumour cell line growth inhibition, 48 h; in the data active means GI50 below about 0.43 µM; inactive means the rest
Starred links: 1 amine or outer side, 2 acyl side, 3 side chain; linkers in the order of their positions; H or OH if unused. Positions of bridges follow the written chain, without caps; N, C: chain ends. Non-standard residues stand in square brackets, D forms with d. Residues, ends and D or L forms follow the SMILES beside them. Chains are numbered I, II in the order given. Actinocin(9to1) = Cc1c2oc3c(C)ccc(C(=O)[*:1])c3nc-2c(C(=O)[*:2])c(N)c1=O; NMeY = CN[CH](Cc1ccc(O)cc1)C(=O)O; Sar = CNCC(=O)O
Outcomes: active, inactive

COc1ccccc1/C=N\N/C(N)=N\N=C\c1ccccc1OC | active
Nc1ccc([N+](=O)[O-])cc1N=C/C=C/c1ccccc1 | inactive
Cn1cc(C2=C(c3ccc(N)cc3)C(=O)NC2=O)c2ccccc21 | inactive
CC1(C)N=C(N)N=C(N)N1c1ccc(CCCCc2ccc(Cl)cc2S(=O)(=O)F)c(Cl)c1 | active
Cn1c(I)c(C#CCO[Si](C)(C)C(C)(C)C)c(=O)[nH]c1=O | inactive
COC(=O)C[C@](O)(CCCC(C)(C)O)C(=O)O[C@@H]1C(OC)=C[C@]23CCCN2CCc2cc4c(cc2[C@H]13)OCO4 | active
Cc1c2oc3c(C)ccc(C(=O)NC4C(=O)NC(C(C)C)C(=O)N5CCCC5C(=O)N(C)CC(=O)N(C)C(Cc5ccc(O)cc5)C(=O)OC4C)c3nc-2c(C(=O)NC2C(=O)NC(C(C)C)C(=O)N3CCCC3C(=O)N(C)CC(=O)N(C)C(Cc3ccc(O)cc3)C(=O)OC2C)c(N)c1=O (centres undefined) (I: TVP[Sar][NMeY] / II: TVP[Sar][NMeY]; ester I:1-I:C, II:1-II:C; linker I:N-II:N via Actinocin(9to1); configuration not given here) | active
CN1CCN(C2CCN(C(=O)Nc3cc(Oc4ccc(NC(=O)C5(C(=O)Nc6ccc(F)cc6)CC5)c(F)c4)ccn3)CC2)CC1 | inactive
COc1cccc(F)c1C(=O)c1cnc(NC2CCN(S(C)(=O)=O)CC2)nc1N | active

====

# key: entry, value: log10 TGI
# System: KM12 colon
# METHOD: NCI tumour cell line growth inhibition, 48 h
TEST_READOUT: log10 TGI (log10 of the value in µM)

Cc1ccc(SC2c3ccc(C)cc3Oc3nc(N)c(C#N)c(N)c32)cc1 (stereo unspecified) | 0.82
CC1(C)N=C(N)N=C(N)N1c1ccc(CCCCc2ccc(Cl)cc2S(=O)(=O)F)c(Cl)c1 | 1.16
Nc1nc(Cl)cc(NCCCCCCCCNc2cc(Cl)nc(N)n2)n1 | 1.76
CCOC(=O)C(C#N)C1=CC(=O)C(=O)c2ccc(OC)cc21 (stereo unspecified) | 1.62
C[C@H]1[C@H]2[C@H]3CC[C@@H]4[C@@]5(C)CC[C@H](O)C(C)(C)[C@@H]5CC[C@@]4(C)[C@]3(C)C[C@H](O)[C@@]2(C)C[C@H]2O[C@]21C | 1.66
Cc1ccnc2[nH]c(-c3ccc4ccccc4c3)cc(=O)c12 | 1.31
O=C(Nc1ccc(Nc2ccncc2)cc1)c1ccc([N+](=O)[O-])cc1 | 1.24
Fc1ccc2c(c1)nc1n2C(c2c(Cl)cccc2Cl)SC1 (stereo unspecified) | 1.41
CCN(CC)CCC(CNc1ccnc2cc(Cl)ccc12)c1ccc(Cl)cc1 (stereo unspecified) | 0.65
